Values from ChEMBL document CHEMBL5665440

assay_notes: Human liver microsomal stability of compound in microsomal protein, PBS buffer pH 7.4, NADPH, glucose-6-phosphate and glucose-6-phosphate dehydrogenase media. Aliquotes were taken at 5 time points and after stopping the reaction, supernatants were analyzed using HPLC coupled with a tandem mass spectrometer. The elimination constant, half-life, and intrinsic clearance are determined as results using linear regression analysis.
Type: ADME, microsomes, Microsome
condition: liver microsomes
observed_property: half-life (min)
# output: bare number, implied unit min

Worked examples follow.
{"smiles_notation": "CN(c1ccc2c(c1)CNC2)[C@H](C(=O)NCC(F)F)c1cc(Cl)cc(C2CC2)c1", "observed_property": "half-life", "reading": 97.7}
{"smiles_notation": "Cc1cc(OCc2ccccc2)ccc1NS(=O)(=O)c1ccc(Cl)cc1C(=O)O", "observed_property": "half-life", "reading": 74.9}
{"smiles_notation": "c1ccc2c(CN3CCC(c4c[nH]c5cccnc45)CC3)c[nH]c2c1", "observed_property": "half-life", "reading": 102}
{"smiles_notation": "O=C(Nc1cc(Cl)cc(C(=O)Nc2cccc(-n3nn[nH]c3=O)c2)c1)OCc1ccccc1", "observed_property": "half-life", "reading": 149}
{"smiles_notation": "NCc1cccc(NC(=O)[C@@H](NC(=O)OCc2ccccc2)C2CCCCC2)c1", "observed_property": "half-life", "reading": 316}
{"smiles_notation": "O=C(O)c1cc(Cl)ccc1NS(=O)(=O)c1ccc(-c2ccccc2Cl)cc1", "observed_property": "half-life", "reading": 4.88}

The reported value for "O=C(Nc1cc2c(cc1Br)CNC2)c1cc(F)cc2[nH]ncc12" in terms of half-life is 146

The reported value for "NCc1cccc(NC(=O)C[C@H](NC(=O)OCc2ccccc2)c2ccc(OCc3ccccc3)c(Br)c2)c1" in terms of half-life is 135

The reported value for "COc1cc(Cc2c(-c3ccc(F)cc3)noc2C)nc(N2CCNCC2)n1" in terms of half-life is 108

The reported value for "CCCC[C@@H](NC(=O)OC(C)(C)C)C(=O)N[C@@H](C(=O)NCc1ccc(CN)cc1)c1ccc(OCc2ccccc2)cc1" in terms of half-life is 29.8

The reported value for "O=C(N[C@H]1[C@H]2CCCCC[C@H]2[C@H]1C(=O)Nc1cccc(C2CCNCC2)c1)OCc1ccccc1" in terms of half-life is 53.4

The reported value for "N#C[C@H](Nc1ccc2c(c1)CNC2)c1cc(Cl)cc2[nH]ncc12" in terms of half-life is 162

----------
assay_notes: Human liver microsomal stability of compound in microsomal protein, PBS buffer pH 7.4, NADPH, glucose-6-phosphate and glucose-6-phosphate dehydrogenase media. Aliquotes were taken at 5 time points and after stopping the reaction, supernatants were analyzed using HPLC coupled with a tandem mass spectrometer. The elimination constant, half-life, and intrinsic clearance are determined as results using linear regression analysis.
Assay type: ADME, microsomes, Microsome
condition: liver microsomes
Below, each entry is listed with its recorded microsomal CLint.
# output: bare number, implied unit µL/min/mg

Worked examples follow.
{"smiles_notation": "NCc1cccc(NC(=O)C[C@@H](NC(=O)OCc2ccccc2)c2ccc(OCc3ccccc3)cc2)c1", "reading": 17}
{"smiles_notation": "COCCNC(=O)[C@H](Nc1ccc2c(c1)CNC2)c1cc(Cl)cc(C2CC2)c1", "reading": 19.7}
{"smiles_notation": "NCc1cccc(NC(=O)[C@@H](NC(=O)OCc2ccccc2)C2CCCCC2)c1", "reading": 5.29}
{"smiles_notation": "O=C(O)c1cc(Cl)ccc1NS(=O)(=O)c1ccc(Oc2ccccc2Cl)cc1", "reading": 155}

The reported value for "C=CC[C@H](Nc1cccc(-c2nn[nH]n2)c1)c1cc(Cl)cc(NC(=O)OCc2ccccc2)c1" in terms of microsomal CLint is 65.5

The reported value for "O=C(NCC(F)F)[C@H](Nc1cc2c(cc1Br)CNC2)c1cc(Cl)cc(C2CC2)c1" in terms of microsomal CLint is 25.9

The reported value for "c1ccc2sc(C3CCN(Cc4c[nH]c5ccccc45)CC3)nc2c1" in terms of microsomal CLint is 38.1

The reported value for "O=C(NCC(F)F)[C@H](Nc1ccc2c(c1)CNC2)c1cc(Cl)cc2c1CCC2" in terms of microsomal CLint is 14

The reported value for "NCc1cccc(CNC(=O)[C@@H](NC(=O)OCc2ccccc2)c2ccc(OCc3ccccc3)cc2)c1" in terms of microsomal CLint is 3.88
